Target: IDH2 R140Q_P167R cis (Homo sapiens, UniProt P48735, P167R/R140Q)
Construct: expressed in transfected cells; host or cells: U-87 MG
Sequence (P48735 40-452 R140Q/P167R): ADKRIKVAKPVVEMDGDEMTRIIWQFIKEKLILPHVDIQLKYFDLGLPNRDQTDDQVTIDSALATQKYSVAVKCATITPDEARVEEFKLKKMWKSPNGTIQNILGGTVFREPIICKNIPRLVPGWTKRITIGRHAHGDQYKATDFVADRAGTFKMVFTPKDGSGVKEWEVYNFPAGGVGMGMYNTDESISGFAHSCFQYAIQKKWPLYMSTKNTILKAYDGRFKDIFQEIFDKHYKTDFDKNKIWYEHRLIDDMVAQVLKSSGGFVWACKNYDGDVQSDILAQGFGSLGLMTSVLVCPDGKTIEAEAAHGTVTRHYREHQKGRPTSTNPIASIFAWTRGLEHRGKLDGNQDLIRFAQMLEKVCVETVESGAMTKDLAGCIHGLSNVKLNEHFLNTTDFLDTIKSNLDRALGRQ
Assay: Inhibition of 2-HG production in IDH2 mutant U-87 MG cells
Type: cell-based
Settings: 72 hours incubation, 12.5K cells/well, read-out: Relative IC50 (nM) Mean, inhibition of 2-HG production
QUANTITY_NAME: IC50 (nM)
Numbers only, in nM.

## Input Fill in the recorded IC50 for this compound, with IDH2 R140Q_P167R cis (Homo sapiens, UniProt P48735, P167R/R140Q) as test system: C=CC(=O)N1CCN([C@@H](CC2CC2)c2ccc([C@H](C)Nc3ncc4c(n3)N(CC)C(=O)OC4)cc2)CC1
## Output 104
